# target_desc: T1, FGF21 (Homo sapiens (assumed), UniProt Q9NSA1)
# T1 construct: FGF21, unrelated antigen used as negative control
# assay: ELISA; monoclonal phage ELISA: wells of 96-well plates coated with EGFR protein fragment or unrelated antigens, blocked with 2% BSA; phage clones added; anti-M13-HRP, TMB, absorbance at 450 nm
# run_conditions: one partner purified

binder	binding result
aEG4D9 displayed on phage (phage clone) (VHH, detected by anti-M13-HRP; source: E. coli TG1, phagemid pR2, rescued with M13 helper phage, phage clone) VHH: QVQLLESGGGLVQPGGSLRLSCAASGDMLSPDNMTWVRQAPGKGLEWVSTIHKTDGSTYYADSVKGRFTISRDNSKNTLYLQMNSLRAEDTAVYYCAGLRSRGLSSKYLEYWGQGTLVTVSS	no binding
aEG6B2 displayed on phage (phage clone) (VHH, detected by anti-M13-HRP; source: E. coli TG1, phagemid pR2, rescued with M13 helper phage, phage clone) VHH: QVQLLESGGGLVQPGGSLRLSCAASGFNVNPKYMTWVRQAPGKGLEWVSSIRSPGGSTYYADSVKGRFTISRDNSKNTLYLQMNSLRAEDTAVYYCASVSRDEKYMRFWGQGTLVTVSS	no binding
aEG2C7 displayed on phage (phage clone) (VHH, detected by anti-M13-HRP; source: E. coli TG1, phagemid pR2, rescued with M13 helper phage, phage clone) VHH: QVQLLESGGGLVQPGGSLRLSCAASGFTFNNEIMAWVRQAPGKGLEWVSSIAANNGSTYYADSVKGRFTISRDNSKNTLYLQMNSLRAEDTAVYYCARYAAEPHTYSMGNKSLRYWGQGTLVTVSS	no binding
aEG1B4 displayed on phage (phage clone) (VHH, detected by anti-M13-HRP; source: E. coli TG1, phagemid pR2, rescued with M13 helper phage, phage clone) VHH: QVQLLESGGGLVQPGGSLRLSCAASGVNVSNEVMSWVRQAPGKGLEWVSTIANHSGSTYYADSVKGRFTISRDNSKNTLYLQMNSLRAEDTAVYYCATLYSGATKQLEYWGQGTLVTVSS	no binding
aEG2E12 displayed on phage (phage clone) (VHH, detected by anti-M13-HRP; source: E. coli TG1, phagemid pR2, rescued with M13 helper phage, phage clone) VHH: QVQLLESGGGLVQPGGSLRLSCAASGYSSNNEFMAWVRQAPGKGLEWVSAISTRNGSTYYADSVKGRFTISRDNSKNTLYLQMNSLRAEDTAVYYCAGVSYRRPQQLKYWGQGTLVTVSS	no binding
